Source listed as patent US20240018189A1.

# MEASURED_ON: T1, human ferroportin (SLC40A1) fused in frame with GFP (human) (UniProt Q9NP59)
# T1 sequence (looked up): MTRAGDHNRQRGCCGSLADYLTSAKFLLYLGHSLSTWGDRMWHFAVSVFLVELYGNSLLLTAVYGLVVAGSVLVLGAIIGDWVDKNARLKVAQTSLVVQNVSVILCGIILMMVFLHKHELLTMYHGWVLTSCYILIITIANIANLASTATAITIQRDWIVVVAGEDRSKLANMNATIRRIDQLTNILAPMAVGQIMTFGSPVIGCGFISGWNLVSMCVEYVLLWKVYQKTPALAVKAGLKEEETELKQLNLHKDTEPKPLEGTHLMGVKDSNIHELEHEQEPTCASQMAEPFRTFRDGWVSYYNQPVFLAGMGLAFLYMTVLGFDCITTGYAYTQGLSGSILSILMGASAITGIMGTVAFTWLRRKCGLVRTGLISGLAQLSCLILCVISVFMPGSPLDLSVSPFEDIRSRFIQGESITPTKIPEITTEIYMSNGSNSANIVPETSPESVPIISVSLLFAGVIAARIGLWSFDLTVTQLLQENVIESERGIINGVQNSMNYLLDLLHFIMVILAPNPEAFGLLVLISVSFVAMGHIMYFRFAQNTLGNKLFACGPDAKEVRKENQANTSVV
# METHOD: cell-based or functional assay
Positions of bridges follow the written chain, without caps; N, C: chain ends. Non-standard residues stand in square brackets, D forms with d. Groups on a side chain read outwards from the residue. *: point of attachment. Dip = N[C@H](C(=O)O)C(c1ccccc1)c1ccccc1; Palmitoyl = CCCCCCCCCCCCCCCC(=O)*; β3hF = N[C@H](CC(=O)O)Cc1ccccc1; Isovaleryl = CC(C)CC(=O)*; Ahx = NCCCCCC(=O)O
REPORTED_METRIC: FPN EC50 (µM)

Sample records with FPN EC50:
DTHXPCIKXKRC (N-term isovaleric acid; 4 Dpa; 8 (D)Lys; 9 bhPhe; 10 Lys(Ahx-Palm); 11 Arg(Nitro); C-term NH2) [Compd. ID 22]    0.0301
Isovaleryl-DTH[Dip]PCI[β3hF]K([Ahx-Palmitoyl])[dK]C-NH2 (disulfide 6-11 (inferred)) [Compd. ID 18]    0.0108
DTHXPCIKXKKC (N-term isovaleric acid; 4 Dpa; 8 (D)Lys; 9 bhPhe; 10 Lys(2Peg11′_Ahx_Palm); 11 (D)Lys; C-term NH2) [Compd. ID 37]    0.0196
Isovaleryl-DTHFPCIKFKPRSKGCK-NH2 (disulfide 6-16 (inferred); not fully specified (residue 10); also: K10: Lys[PEG11-Palm] (Lys[2PEG11-Palm]) [Ref. Cmpd. 1]    0.03

(1) DTHXPCIKXKRC (N-term isovaleric acid; 4 Dpa; 8 (D)Lys; 9 bhPhe; 10 Lys(Ahx-Palm); C-term NH2) [Compd. ID 2]
(2) DTHXPCIKXKKC (N-term isovaleric acid; 4 Dpa; 8 (D)Lys; 9 bhPhe; 10 Lys(Lys[Peg11_Palm]2); 11 (D)Lys; C-term NH2) [Compd. ID 38]
Given 1 and given 2 , which shows the smaller recorded FPN EC50? Answer by quoting the chosen item's label.
1
